# reported Gall bladder; entries follow
Test system: EMT6 tumor-bearing model mice
Test: Biodistribution in tumor and organs of tumor-bearing mouse (Example 14)
Type: in vivo, mouse (Balb/c nu/nu)
Conditions: 60 minutes after administration, mean
API: value field is a number in % ID/g; no unit string.

Recorded Gall bladder, per entry:
compound	measured quantity	recorded measurement
O=[N+]([O-])c1nccn1CC(O)C[18F] (stereo not shown) [[^18F]FMISO, [^18F]fluoromisonidazole, reference compound]	Gall bladder	12.92
O=[N+]([O-])c1nc(CO)cn1CC(CO)(CO)C[18F] [Compound 2]	Gall bladder	7.54

Task: Record O=[N+]([O-])c1nccn1CCC(CO)(CO)C[18F] [Compound 3] : what is its Gall bladder with EMT6 tumor-bearing model mice?
Output: 16.71

Task: Record O=[N+]([O-])c1nccn1CC(CO)(CO)C[18F] [Compound 1] : what is its Gall bladder with EMT6 tumor-bearing model mice?
Output: 26.34
